- Target of assay: MTHFS (Mus musculus, UniProt Q9D110)
- Sequence (Q9D110 1-203): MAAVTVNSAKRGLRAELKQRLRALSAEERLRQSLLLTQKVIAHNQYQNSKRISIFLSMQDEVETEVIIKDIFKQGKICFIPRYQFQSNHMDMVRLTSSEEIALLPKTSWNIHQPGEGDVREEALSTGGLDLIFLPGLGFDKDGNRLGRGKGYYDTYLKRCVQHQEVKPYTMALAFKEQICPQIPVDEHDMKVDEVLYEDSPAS
- Test details: Inhibition of MTHFS by folates/antifolates, reaction specificity (Ki, Km)
- Format: biochemical
- Test context: natural isomer; read-out: Ki for MTHFS
Observation type: Ki (nM)
Only the number, expressed in nM, is required.

q: Field: Ki (MTHFS (Mus musculus, UniProt Q9D110)). Entry: Nc1nc2c(c(=O)[nH]1)NC(CN(C=O)c1ccc(C(=O)N[C@@H](CCC(=O)N[C@@H](CCC(=O)N[C@@H](CCC(=O)O)C(=O)O)C(=O)O)C(=O)O)cc1)CN2 (stereo partly shown) [10-formylTHF triglutamate]
a: 15

* * *

- Target of assay: UniProtKB Q9D110
- Sequence (Q9D110 1-203): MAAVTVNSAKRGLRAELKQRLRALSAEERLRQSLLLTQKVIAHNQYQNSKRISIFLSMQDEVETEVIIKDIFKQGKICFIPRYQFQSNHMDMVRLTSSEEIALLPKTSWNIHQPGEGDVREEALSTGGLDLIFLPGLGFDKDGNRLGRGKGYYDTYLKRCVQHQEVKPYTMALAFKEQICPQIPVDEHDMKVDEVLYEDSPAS
- Test details: Inhibition of MTHFS by folates/antifolates, reaction specificity (Ki, Km)
- Format: biochemical
- Test context: 37° C., pH 6.0; inhibitor of MTHFS; read-out: Ki
Observation type: log10(Ki) (log10 of the value in µM)
# log10 transformed; quantity=Ki; unit=µM

q: Data request, read-out log10(Ki), for Nc1nc2c(c(=O)[nH]1)NC(CN(C=O)c1ccc(C(=O)N[C@@H](CCC(=O)N[C@@H](CCC(=O)N[C@@H](CCC(=O)O)C(=O)O)C(=O)O)C(=O)O)cc1)CN2 (mixture of isomers) [(6RS)10-formylTHFGlu3]
a: -1.52

q: Same question, CN(CCC1CNc2nc(N)[nH]c(=O)c2N1C=O)c1ccc(C(=O)N[C@@H](CCC(=O)O)C(=O)O)cc1 (mixture of isomers) [(6RS)5-formyl,10-methylTHHF] this time
a: 0.78

q: Same question, Nc1nc2c(c(=O)[nH]1)NC(CN(C=O)c1ccc(C(=O)N[C@@H](CCC(=O)O)C(=O)O)cc1)CN2 (stereo partly drawn) [(6R)10-formylTHF, 10-formyltetrahydrofolate] this time
a: -0.82

q: Same question, Nc1nc2ncc(CNc3ccc(C(=O)NC(CCC(=O)NC(CCC(=O)NC(CCC(=O)NC(CCC(=O)NC(CCC(=O)O)C(=O)O)C(=O)O)C(=O)O)C(=O)O)C(=O)O)cc3)nc2c(=O)[nH]1 (stereo not drawn) [folic acidGlu5] this time
a: 0.00

q: Same question, Nc1nc2ncc(CNc3ccc(C(=O)N[C@@H](CCC(=O)N[C@@H](CCC(=O)N[C@@H](CCC(=O)O)C(=O)O)C(=O)O)C(=O)O)cc3)nc2c(=O)[nH]1 [folic acidGlu3] this time
a: 1.23

q: Same question, Nc1nc2ncc(CN(C=O)c3ccc(C(=O)N[C@@H](CCC(=O)O)C(=O)O)cc3)nc2c(=O)[nH]1 [10-formylfolic acid] this time
a: 1.11

q: Same question, Nc1nc2c(c(=O)[nH]1)NC(CCN(C=O)c1ccc(C(=O)NC(CCC(=O)O)C(=O)O)cc1)CN2 (racemic) [(6RS)10-formylTHHF] this time
a: -0.72

q: Same question, Nc1nc2c(c(=O)[nH]1)N(C=O)C(CCNc1ccc(C(=O)N[C@@H](CCC(=O)O)C(=O)O)cc1)CN2 (mixture of isomers) [(6RS)5-formylTHHF, 5-formyltetrahydrohomofolate] this time
a: -0.15

q: Same question, Nc1nc2ncc(CNc3ccc(C(=O)N[C@@H](CCC(=O)O)C(=O)O)cc3)nc2c(=O)[nH]1 [folic acid] this time
a: 1.76

q: Same question, CN(CC1CNc2nc(N)[nH]c(=O)c2N1C=O)c1ccc(C(=O)N[C@@H](CCC(=O)O)C(=O)O)cc1 (mixture of isomers) [(6RS)5-formyl,10-methylTHF] this time
a: 1.00

q: Same question, Nc1nc2c(c(=O)[nH]1)NC(CN(C=O)c1ccc(C(=O)O)cc1)CN2 (racemic) [(6RS)10-formylTHPteroate] this time
a: 0.70

q: Same question, CN(CC1CNc2nc(N)[nH]c(=O)c2N1C=O)c1ccc(C(=O)N[C@@H](CCC(=O)N[C@@H](CCC(=O)N[C@@H](CCC(=O)O)C(=O)O)C(=O)O)C(=O)O)cc1 (mixture of isomers) [(6RS)5-formyl,10-methylTHFGlu3] this time
a: 1.30
